Tested on: BEN
Experiment: relative viability (nuclei count vs DMSO), 5 days (fraction); higher = more cells survive
Conditions: first compound 0.08 µM
VALUE_KIND: relative viability

COMPOUND: Cc1cnc(-c2cnc(NCCNc3ccc(C#N)cn3)nc2-c2ccc(Cl)cc2Cl)[nH]1 + CC1(C)CCC(c2ccc(Cl)cc2)=C(CN2CCN(c3ccc(C(=O)NS(=O)(=O)c4ccc(N[C@H](CCN5CCOCC5)CSc5ccccc5)c(S(=O)(=O)C(F)(F)F)c4)cc3)CC2)C1 [Navitoclax] (partner 0.5 µM)
VALUE_KIND: relative viability
NUMERIC_RESULT: 0.0701
--
COMPOUND: O=c1[nH]c2ccccc2n1C1CCN(CCCC(c2ccc(F)cc2)c2ccc(F)cc2)CC1 [Pimozide] + C[C@@H](Oc1cc(-c2cnn(C3CCNCC3)c2)cnc1N)c1c(Cl)ccc(F)c1Cl [Crizotinib] (partner 1 µM)
VALUE_KIND: relative viability
NUMERIC_RESULT: 1.01
--
COMPOUND: O=c1[nH]c2ccccc2n1C1CCN(CCCC(c2ccc(F)cc2)c2ccc(F)cc2)CC1 [Pimozide] + C[C@]1(O)C[C@@H](c2nc(-c3ccc4ccc(-c5ccccc5)nc4c3)c3c(N)nccn32)C1 [Linsitinib] (partner 1 µM)
VALUE_KIND: relative viability
NUMERIC_RESULT: 1.07
--
COMPOUND: O=c1[nH]c2ccccc2n1C1CCN(CCCC(c2ccc(F)cc2)c2ccc(F)cc2)CC1 [Pimozide] + COc1cccc2cc(-c3nc([C@H]4CC[C@H](C(=O)O)CC4)n4ncnc(N)c34)[nH]c12 [OSI-027] (partner 0.5 µM)
VALUE_KIND: relative viability
NUMERIC_RESULT: 0.275

###

Tested on: NCI-H2087
Test: relative viability (nuclei count vs DMSO), 5 days (fraction); higher = more cells survive
Conditions: first compound 0.0002 µM

COMPOUND: CC(=O)O[C@@]12CO[C@@H]1C[C@H](O)[C@@]1(C)C(=O)[C@H](O)C3=C(C)[C@@H](OC(=O)[C@H](O)[C@@H](NC(=O)OC(C)(C)C)c4ccccc4)C[C@@](O)([C@@H](OC(=O)c4ccccc4)[C@H]21)C3(C)C [Docetaxel] + Nc1nc2[nH]cc(CCc3ccc(C(=O)N[C@@H](CCC(=O)O)C(=O)O)cc3)c2c(=O)[nH]1 [Pemetrexed] (partner 0.2 µM)
relative viability: 0.553
--
COMPOUND: CC(=O)O[C@@]12CO[C@@H]1C[C@H](O)[C@@]1(C)C(=O)[C@H](O)C3=C(C)[C@@H](OC(=O)[C@H](O)[C@@H](NC(=O)OC(C)(C)C)c4ccccc4)C[C@@](O)([C@@H](OC(=O)c4ccccc4)[C@H]21)C3(C)C [Docetaxel] + O=C(c1cc(Cc2n[nH]c(=O)c3ccccc23)ccc1F)N1CCN(C(=O)C2CC2)CC1 [Olaparib] (partner 8 µM)
relative viability: 0.586
--
COMPOUND: CC(=O)O[C@@]12CO[C@@H]1C[C@H](O)[C@@]1(C)C(=O)[C@H](O)C3=C(C)[C@@H](OC(=O)[C@H](O)[C@@H](NC(=O)OC(C)(C)C)c4ccccc4)C[C@@](O)([C@@H](OC(=O)c4ccccc4)[C@H]21)C3(C)C [Docetaxel] + NC(=O)Nc1cc(-c2cccc(F)c2)sc1C(=O)N[C@H]1CCCNC1 [AZD7762] (partner 0.2 µM)
relative viability: 1.23

###

Test system: HCC-15
Experiment: relative viability (nuclei count vs DMSO), 5 days (fraction); higher = more cells survive
Settings: first compound 0.000632 µM
Reported relative viability is given for each of the following molecules.
VALUE_KIND: relative viability

MOLECULE: CC(=O)O[C@@]12CO[C@@H]1C[C@H](O)[C@@]1(C)C(=O)[C@H](O)C3=C(C)[C@@H](OC(=O)[C@H](O)[C@@H](NC(=O)OC(C)(C)C)c4ccccc4)C[C@@](O)([C@@H](OC(=O)c4ccccc4)[C@H]21)C3(C)C [Docetaxel] + O=C(c1cc(Cc2n[nH]c(=O)c3ccccc23)ccc1F)N1CCN(C(=O)C2CC2)CC1 [Olaparib] (partner 8 µM)
TARGET: HCC-15
NUMERIC_RESULT: 0.382
--
MOLECULE: CC(=O)O[C@@]12CO[C@@H]1C[C@H](O)[C@@]1(C)C(=O)[C@H](O)C3=C(C)[C@@H](OC(=O)[C@H](O)[C@@H](NC(=O)OC(C)(C)C)c4ccccc4)C[C@@](O)([C@@H](OC(=O)c4ccccc4)[C@H]21)C3(C)C [Docetaxel] + CS(=O)(=O)N1CCN(Cc2cc3nc(-c4cccc5[nH]ncc45)nc(N4CCOCC4)c3s2)CC1 [Pictilisib] (partner 1 µM)
TARGET: HCC-15
NUMERIC_RESULT: 0.491

###

Test system: NCI-H2405
Experiment: relative viability (nuclei count vs DMSO), 5 days (fraction); higher = more cells survive
Details: first compound 2.53 µM
Reported relative viability is given for each of the following compounds.

COMPOUND: Cc1cnc(-c2cnc(NCCNc3ccc(C#N)cn3)nc2-c2ccc(Cl)cc2Cl)[nH]1 + CC(=O)Nc1cccc(-n2c(=O)n(C3CC3)c(=O)c3c(Nc4ccc(I)cc4F)n(C)c(=O)c(C)c32)c1 [Trametinib] (partner 0.02 µM)
TARGET: NCI-H2405
relative viability: 0.439

COMPOUND: Cc1cnc(-c2cnc(NCCNc3ccc(C#N)cn3)nc2-c2ccc(Cl)cc2Cl)[nH]1 + CS(=O)(=O)N1CCN(Cc2cc3nc(-c4cccc5[nH]ncc45)nc(N4CCOCC4)c3s2)CC1 [Pictilisib] (partner 1 µM)
TARGET: NCI-H2405
relative viability: 0.412

COMPOUND: O=c1[nH]c2ccccc2n1C1CCN(CCCC(c2ccc(F)cc2)c2ccc(F)cc2)CC1 [Pimozide] + Nc1ncn([C@H]2C[C@H](O)[C@@H](CO)O2)c(=O)n1 [Decitabine] (partner 2 µM)
TARGET: NCI-H2405
relative viability: 0.69

COMPOUND: O=c1[nH]c2ccccc2n1C1CCN(CCCC(c2ccc(F)cc2)c2ccc(F)cc2)CC1 [Pimozide] + Cc1nc(NC(=O)N2CCC[C@H]2C(N)=O)sc1-c1ccnc(C(C)(C)C(F)(F)F)c1 [Alpelisib] (partner 2 µM)
TARGET: NCI-H2405
relative viability: 0.741

###

System: HCC-366
Experiment: relative viability (nuclei count vs DMSO), 5 days (fraction); higher = more cells survive
Details: first compound 5 µM
The label is Satisfied for relative viability below 0.6 and Not satisfied for relative viability equal to or exceeding 0.6.

COMPOUND: O=C(O)CCCCC(CCSCc1ccccc1)SCc1ccccc1 (stereo not given) [CPI-613] + CS(=O)(=O)N1CCN(Cc2cc3nc(-c4cccc5[nH]ncc45)nc(N4CCOCC4)c3s2)CC1 [Pictilisib] (partner 1 µM)
CATEGORY: Satisfied
//
COMPOUND: O=C(O)CCCCC(CCSCc1ccccc1)SCc1ccccc1 (stereo not given) [CPI-613] + CS(=O)(=O)CCNCc1ccc(-c2ccc3ncnc(Nc4ccc(OCc5cccc(F)c5)c(Cl)c4)c3c2)o1 [Lapatinib] (partner 2 µM)
CATEGORY: Not satisfied
//
COMPOUND: O=C(O)CCCCC(CCSCc1ccccc1)SCc1ccccc1 (stereo not given) [CPI-613] + COc1cccc2cc(-c3nc([C@H]4CC[C@H](C(=O)O)CC4)n4ncnc(N)c34)[nH]c12 [OSI-027] (partner 0.5 µM)
CATEGORY: Not satisfied
//
COMPOUND: O=C(O)CCCCC(CCSCc1ccccc1)SCc1ccccc1 (stereo not given) [CPI-613] + CC(=O)Nc1cccc(-n2c(=O)n(C3CC3)c(=O)c3c(Nc4ccc(I)cc4F)n(C)c(=O)c(C)c32)c1 [Trametinib] (partner 0.02 µM)
CATEGORY: Satisfied

###

Tested on: NCI-H2342
Assay: relative viability (nuclei count vs DMSO), 5 days (fraction); higher = more cells survive
Conditions: first compound 0.05 µM

MOLECULE: COc1cc2nccc(Oc3ccc(NC(=O)Nc4cc(C)on4)c(Cl)c3)c2cc1OC [Tivozanib] + CCNC(=O)c1noc(-c2cc(C(C)C)c(O)cc2O)c1-c1ccc(CN2CCOCC2)cc1 [Luminespib] (partner 0.01 µM)
relative viability: 0.802

MOLECULE: COc1cc2nccc(Oc3ccc(NC(=O)Nc4cc(C)on4)c(Cl)c3)c2cc1OC [Tivozanib] + COc1cc2c(Oc3ccc(NC(=O)C4(C(=O)Nc5ccc(F)cc5)CC4)cc3F)ccnc2cc1OCCCN1CCOCC1 [Foretinib] (partner 0.25 µM)
relative viability: 1.11

MOLECULE: COc1cc2nccc(Oc3ccc(NC(=O)Nc4cc(C)on4)c(Cl)c3)c2cc1OC [Tivozanib] + Cc1nc(Nc2ncc(C(=O)Nc3c(C)cccc3Cl)s2)cc(N2CCN(CCO)CC2)n1 [Dasatinib] (partner 0.075 µM)
relative viability: 0.326

MOLECULE: Nc1ccn([C@@H]2O[C@H](CO)[C@@H](O)[C@@H]2O)c(=O)n1 [Cytarabine] + N=C(N)NC(=N)NCCc1ccccc1 [Phenformin] (partner 250 µM)
relative viability: 0.482
